target: BRAF^V600E protein (Homo sapiens, UniProt P15056, V600E)
Sequence (P15056 whole entry V600E): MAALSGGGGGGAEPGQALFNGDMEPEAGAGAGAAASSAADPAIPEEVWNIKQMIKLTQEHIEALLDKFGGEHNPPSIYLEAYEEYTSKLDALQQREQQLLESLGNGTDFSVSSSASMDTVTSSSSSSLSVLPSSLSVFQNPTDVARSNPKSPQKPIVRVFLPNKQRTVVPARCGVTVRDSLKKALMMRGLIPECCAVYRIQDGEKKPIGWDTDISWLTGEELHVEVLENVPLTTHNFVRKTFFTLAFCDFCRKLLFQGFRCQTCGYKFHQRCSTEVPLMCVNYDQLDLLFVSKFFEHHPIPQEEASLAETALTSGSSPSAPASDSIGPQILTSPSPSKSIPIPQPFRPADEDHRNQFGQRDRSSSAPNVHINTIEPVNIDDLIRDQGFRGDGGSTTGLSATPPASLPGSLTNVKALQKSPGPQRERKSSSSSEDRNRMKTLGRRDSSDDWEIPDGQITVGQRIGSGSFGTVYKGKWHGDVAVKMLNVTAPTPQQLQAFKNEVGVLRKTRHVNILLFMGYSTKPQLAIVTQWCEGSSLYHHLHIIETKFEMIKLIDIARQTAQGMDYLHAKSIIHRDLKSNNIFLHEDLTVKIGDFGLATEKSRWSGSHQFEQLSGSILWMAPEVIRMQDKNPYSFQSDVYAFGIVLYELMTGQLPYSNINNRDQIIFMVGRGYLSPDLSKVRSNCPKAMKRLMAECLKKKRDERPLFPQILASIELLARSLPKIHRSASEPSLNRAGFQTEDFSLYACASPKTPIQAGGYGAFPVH
method_notes: HiBiT cellular BRAF V600E degradation assay
Format: cell-based
study_conditions: A375.10 cells (HiBiT tag knocked in at N-terminal of BRAF V600E), 24 h incubation; concentration at which 50% of total cellular BRAF V600E is degraded
reported_property: DC50 (nM)

Worked examples follow.
| compound | readout_value |
| --- | --- |
| CCN(C)S(=O)(=O)Nc1ccc(F)c(C(=O)c2c[nH]c3ncc(-c4ccc(N5CCC(NCC(=O)N6CCC(c7ccc(NC8CCC(=O)NC8=O)cc7)CC6)CC5)nc4)cc23)c1F (stereo not shown) | 13 |
| CCN(C)S(=O)(=O)Nc1ccc(F)c(C(=O)c2c[nH]c3ncc(-c4cnc(C5CCN(C(=O)CN6CCC(c7ccc(NC8CCC(=O)NC8=O)cc7)CC6)CC5)nc4)cc23)c1F (stereo not shown) | 7.44 |
| CCN(C)S(=O)(=O)Nc1ccc(F)c(C(=O)c2c[nH]c3ncc(-c4cnc(N5CC6(C5)CC(O)(C5CCN(c7ccc(NC8CCC(=O)NC8=O)cc7F)CC5)C6)nc4)cc23)c1F (stereo not shown) | 1.14 |
| O=C1CCC(Nc2ccc(C3CCN(CC(=O)N4CCN(c5ccc(-c6cnc7[nH]cc(C(=O)c8c(F)ccc(NS(=O)(=O)N9CCCC9)c8F)c7c6)cn5)CC4)CC3)cc2)C(=O)N1 (stereo not shown) | 4.47 |

(A) CCN(C)S(=O)(=O)Nc1ccc(F)c(C(=O)c2c[nH]c3ncc(-c4cnc(N5CCN(C(=O)CC6CCN(c7ccc(NC8CCC(=O)NC8=O)cc7)CC6)CC5)nc4)cc23)c1F (stereo not shown)
(B) O=C1CCN(c2cccc(C3CCN(CC(=O)N4CCN(c5ccc(-c6cnc7[nH]cc(C(=O)c8c(F)ccc(NS(=O)(=O)N9CCCC9)c8F)c7c6)cc5)CC4)CC3)c2)C(=O)N1
Of A versus B , which is the one with smaller reported DC50? Write down the label attached to your selection.
A

(1) CCN(C)S(=O)(=O)Nc1ccc(F)c(C(=O)c2c[nH]c3ncc(-c4ccc(N5CCN(C(=O)CC6(O)CCN(c7ccc(NC8CCC(=O)NC8=O)cc7F)CC6)CC5)c(C)c4)cc23)c1F (stereo not shown)
(2) CCN(C)S(=O)(=O)Nc1ccc(F)c(C(=O)c2c[nH]c3ncc(-c4ccc(N5CCN(C(=O)CC6(O)CCN(c7ccc(C8CCC(=O)NC8=O)cc7F)CC6)CC5)nc4)cc23)c1F (stereo not shown)
Thinking about recorded DC50 values, which is higher, 1 or 2 ? Write down the label attached to your selection.
1
(1: 13.9 nM, 2: 3.12 nM)

----------
target: BRAF^V600E protein (Homo sapiens, UniProt P15056, V600E)
method_notes: HiBiT cellular BRAF V600E degradation assay
Format: cell-based
study_conditions: A375.10 cells (HiBiT tag knocked in at N-terminal of BRAF V600E), 24 h incubation; concentration at which 50% of total cellular BRAF V600E is degraded
reported_property: DC50 (nM)

Worked examples follow.
| molecule | DC50 [nM] |
| --- | --- |
| O=C1CCC(Nc2ccc(N3CCN(CC(=O)N4CCN(c5ccc(-c6cnc7[nH]cc(C(=O)c8c(F)ccc(NS(=O)(=O)N9CCCC9)c8F)c7c6)cc5)CC4)CC3)cc2)C(=O)N1 (stereo not shown) | 4 |
| CCN(C)S(=O)(=O)Nc1ccc(F)c(C(=O)c2c[nH]c3ncc(-c4ccc(N5CCN(C(=O)CN6CCC(c7ccc(OC8CCC(=O)NC8=O)cc7)CC6)CC5)cc4)cc23)c1F (stereo not shown) | 10.6 |
| CCN(C)S(=O)(=O)Nc1ccc(F)c(C(=O)c2c[nH]c3ncc(-c4ccc(N5CCN(C(=O)CC6(O)CCN(c7ccc(N8CCC(=O)NC8=O)cc7F)CC6)CC5)nc4)cc23)c1F | 3 |
| O=C1CCC(Nc2ccc(C3CCN(CC(=O)N4[C@@H]5CCC[C@H]4CN(c4ccc(-c6cnc7[nH]cc(C(=O)c8c(F)ccc(NS(=O)(=O)N9CCCC9)c8F)c7c6)cn4)C5)CC3)cc2)C(=O)N1 (mixture of isomers) | 11 |
| CCN(C)S(=O)(=O)Nc1ccc(F)c(C(=O)c2c[nH]c3ncc(-c4ccc(CN5CCC(C(=O)N6CCN(c7ccc(OC8CCC(=O)NC8=O)cc7)CC6)C5)cc4)cc23)c1F (stereo not shown) | 84 |
| CCN(C)S(=O)(=O)Nc1ccc(F)c(C(=O)c2c[nH]c3ncc(-c4cnc(N5CCN(C(=O)CC6CCN(c7ccc8c(N9CCC(=O)NC9=O)nn(C)c8c7)CC6)CC5)nc4)cc23)c1F | 5.12 |

(A) CCN(C)S(=O)(=O)Nc1ccc(F)c(C(=O)c2c[nH]c3ncc(-c4cnc(N5CCC(NC(=O)N6CCC(c7ccc(NC8CCC(=O)NC8=O)cc7)CC6)CC5)nc4)cc23)c1F (stereo not shown)
(B) CCN(C)S(=O)(=O)Nc1ccc(F)c(C(=O)c2c[nH]c3ncc(-c4cnc(N5CCC(NCC(=O)N6CCC(c7ccc(OC8CCC(=O)NC8=O)cc7)CC6)CC5)nc4)cc23)c1F (stereo not shown)
Of A versus B , which is the one with smaller reported DC50? Write down the label attached to your selection.
B

----------
target: BRAF^V600E protein (Homo sapiens, UniProt P15056, V600E)
method_notes: HiBiT cellular BRAF V600E degradation assay
Assay type: cell-based
study_conditions: A375.10 cells (HiBiT tag knocked in at N-terminal of BRAF V600E), 24 h incubation; concentration at which 50% of total cellular BRAF V600E is degraded
reported_property: DC50 (nM)

Worked examples follow.
| compound | DC50 (nM) |
| --- | --- |
| CCN(C)S(=O)(=O)Nc1ccc(F)c(C(=O)c2c[nH]c3ncc(-c4ccc(N5CCN(C(=O)CN6CCC(c7ccc(O[C@@H]8CCC(=O)NC8=O)cc7)CC6)CC5)nc4)cc23)c1F [Example A122] | 32 |
| CCN(C)S(=O)(=O)Nc1ccc(F)c(C(=O)c2c[nH]c3ncc(-c4cnc(N5CCN(C(=O)CC6(O)CCN(c7ccc(NC8CCC(=O)NC8=O)cc7F)CC6)CC5)c(F)c4)cc23)c1F (stereo not shown) | 4.5 |
| CCN(C)S(=O)(=O)Nc1ccc(F)c(C(=O)c2c[nH]c3ncc(-c4cnc(N5CCN(C(=O)CN6CC7(C6)CN(c6ccc(NC8CCC(=O)NC8=O)cc6)C7)CC5)nc4)cc23)c1F (stereo not shown) | 24.9 |
| CCN(C)S(=O)(=O)Nc1ccc(F)c(C(=O)c2c[nH]c3ncc(-c4cnc(N5CCC(C(=O)NC6CCN(c7ccc(NC8CCC(=O)NC8=O)cc7F)CC6)CC5)nc4)cc23)c1F (stereo not shown) | 20.9 |
| CC(C)S(=O)(=O)Nc1ccc(F)c(C(=O)c2c[nH]c3ncc(-c4ccc(N5CCN(C(=O)C6CC(N7CCC(c8ccc(NC9CCC(=O)NC9=O)cc8)CC7)C6)CC5)nc4)cc23)c1F (stereo not shown) | 12 |

(1) CCN(C)S(=O)(=O)Nc1ccc(F)c(C(=O)c2c[nH]c3ncc(C#Cc4ccc(C(=O)NCCN5CCC(c6ccc(NC7CCC(=O)NC7=O)cc6)CC5)cc4)cc23)c1F (stereo not shown)
(2) CC(C)S(=O)(=O)Nc1ccc(F)c(C(=O)c2c[nH]c3ncc(-c4ccc(N5CCN(C(=O)CN6CCC(c7ccc(NC8CCC(=O)NC8=O)cc7)CC6)CC5)nc4)cc23)c1F (stereo not shown)
Thinking about recorded DC50 values, which is higher, 1 or 2 ? Write down the label attached to your selection.
1

(A) CCN(C)S(=O)(=O)Nc1ccc(F)c(C(=O)c2c[nH]c3ncc(-c4cnc(N5CCC(n6cc7c(n6)CN(c6ccc(NC8CCC(=O)NC8=O)cc6)CC7)CC5)nc4)cc23)c1F (stereo not shown)
(B) O=C1CCC(Nc2ccc(C3CCN(CC(=O)N4CCN(c5ccc(-c6cnc7[nH]cc(C(=O)c8c(F)ccc(NS(=O)(=O)N9CC[C@@H](F)C9)c8F)c7c6)cc5)CC4)CC3)cc2)C(=O)N1 (stereo partly shown)
(C) CCN(C)S(=O)(=O)Nc1cccc(C(=O)c2c[nH]c3ncc(-c4ccc(N5CCN(C(=O)CC6(O)CCN(c7ccc(NC8CCC(=O)NC8=O)cn7)CC6)CC5)cc4)cc23)c1F (stereo not shown)
Order the records, beginning with the lowest DC50 and ending with the highest. Return value: ordered labels per request.
B, A, C

----------
target: BRAF^V600E protein (Homo sapiens, UniProt P15056, V600E)
method_notes: HiBiT cellular BRAF V600E degradation assay
Assay type: cell-based
study_conditions: A375.10 cells, 24 h incubation; Emax = amount of residual protein remaining in the cell after compound treatment; read-out: HiBit 24 h Emax
reported_property: Emax (%)

| compound | target | Emax [%] |
| --- | --- | --- |
| CCC(C)S(=O)(=O)Nc1ccc(F)c(C(=O)c2c[nH]c3ncc(-c4ccc(N5CCN(C(=O)CN6CCC(c7ccc(OC8CCC(=O)NC8=O)cc7)CC6)CC5)nc4)cc23)c1F (stereo not drawn) | BRAF^V600E protein (Homo sapiens, UniProt P15056, V600E) | 14 |
| CCN(C)S(=O)(=O)Nc1ccc(F)c(C(=O)c2c[nH]c3ncc(-c4ccc(N5CCN(C(=O)CC6(O)CCN(c7ccc(NC8CCC(=O)NC8=O)cc7F)CC6)CC5)nc4)cc23)c1Cl (stereo not drawn) | BRAF^V600E protein (Homo sapiens, UniProt P15056, V600E) | 10.5 |
| CCN(C)S(=O)(=O)Nc1ccc(F)c(C(=O)c2c[nH]c3ncc(-c4ccc(N5CCC(NC(=O)CN6CCC(c7ccc(NC8CCC(=O)NC8=O)cc7)CC6)CC5)nc4)cc23)c1F (stereo not drawn) | BRAF^V600E protein (Homo sapiens, UniProt P15056, V600E) | 13 |
